Reference source: PubChem BioAssay (NCI)

- protocol-notes: NCI Yeast Anticancer Drug Screen. Data for the cln2 rad14 strain (AID 165);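 note: 0% = growth equal to vehicle treated cultures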
- measurement-context: S. cerevisiae cln2 rad14 strain, hits give high values; at 50.0 µM unless noted
The panel holds about 79,000 compounds, 15% with a hit somewhere; the sample as a whole holds those more often. The source made the active and inactive calls. Cut-off read from the data, not from the text of the source: active = growth inhibition above about 70%; inactive = the rest.
Listing: growth inhibition of selected compounds
endpoint-label: growth inhibition

| compound | endpoint-label | result |
| --- | --- | --- |
| O=C(Cc1ccccc1)N/N=C(/c1nc2ccc([N+](=O)[O-])cc2[nH]c1=O)C(O)c1ccccc1Cl (stereo unspecified) | growth inhibition | 2.2% (inactive) |
| CCCCCCCOC(=O)CO | growth inhibition | 16.9% (inactive) |
| CC(C)c1cccc(C(C)C)c1NC(=O)N1CCCCC1 | growth inhibition | 3.85% (inactive) |
| C=C1CC(C)(COc2ccc3ccc(=O)oc3c2)OC1=O (stereo unspecified) | growth inhibition | 37.5% (inactive) |
| O=C(O)C1C2CCCC21 (stereo unspecified) | growth inhibition | 25.9% (inactive) |
| CCN(CC(COc1ccc2c(c1)[n+]([O-])nc(N)[n+]2[O-])OC(C)=O)C(C)=O (stereo unspecified) | growth inhibition | 40.1% (inactive) |

* * *

- protocol-notes: NCI Yeast Anticancer Drug Screen. Data for the rad50 strain (AID 155);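 note: 0% = growth of vehicle-only cultures of the same strain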
- measurement-context: S. cerevisiae rad50 strain growth inhibition, hits give high values; at 50.0 µM unless noted
- Procedure: Growth inhibition of yeast strains with defined genetic alterations is measured as a screen for potential anti-cancer activity. Selected strains with alterations in DNA damage repair or cell cycle control were exposed to compounds and growth inhibition was measured relative to vehicle treated controls. The strain used in this assay is rad50
This is part of a sample that, as a whole, favours compounds with a hit. Of some 79,000 tested, about 15% had one in any assay.

| molecule | growth inhibition [%] |
| --- | --- |
| C[N+](C)(C)CCc1ccc(Cl)cc1 | 10.2 |
| CC(=O)OCCN(CCOC(C)=O)CCOC(C)=O | -8.4 |
| COc1cccc(N)c1N | 21.4 |
| O/N=C(Sc1ccccn1)/C(=N/O)Sc1ccccn1 | -7.25 |
| Nc1ccc(S(=O)(=O)Nc2cc(C(F)(F)F)cc(C(F)(F)F)c2)cc1 | 12.9 |
| O=S1(=O)OCCOS(=O)(=O)C1C1c2ccccc2-c2ccccc21 | 13.4 |
| CN1C(=O)N(C)C2(O)c3ccccc3C(=O)C12O (stereo not given) | 14.6 |
| CCOC(=O)c1nc2ccccc2nc1NCc1cc(OC)c(OC)c(OC)c1 | -14.9 |
| CC(=NCCCCN=C(C)c1cc(O)cc(Br)c1O)c1cc(O)cc(Br)c1O.[Co] | 17.9 |
| COC(=O)c1ccc(-n2cc(C(=O)OC)c([N+]#N)c2[O-])cc1 | 9.4 |
| CC(c1cccc(O)c1)N(C)C (stereo not given) | 5.9 |
| COc1cc(N(Cc2ccc3nc(OC)c(OC)nc3c2)Cc2ccc3nc(OC)c(OC)nc3c2)cc(OC)c1OC | -29.8 |
| COc1ccc(/C(C)=N/N=C\c2cc(OC)c(OC)c(OC)c2)cc1 | 6.95 |
| CCOc1ccccc1/C=C1\N=C(c2ccc([N+](=O)[O-])cc2)OC1=O | 22.5 |
| CC(=O)Nc1cc(Cl)ccc1F | 14.1 |
| c1ccc2c(c1)Cc1cc3ccccc3cc1C2 | -32.2 |
| O=C1NC(=O)[C@@]2(CC[C@@H](O)C2)c2ccncc21 | 3.55 |
| O=C(CC1SC(=Nc2ccccc2Cl)NC1=O)Nc1ccc(Cl)cc1Cl (stereo not given) | -9.8 |
| O=C(O)c1ccc(/C=N/N=C2c3ccccc3-c3ccccc32)cc1 | 66.6 |
| CCC/C(=N\NC(=S)N1CCN(c2ccccn2)CC1)c1ccccn1 | 87.3 |
| COc1cc(C(=O)c2cc3c(cc2C(=O)O)OCO3)cc(OC)c1OC | -7.6 |
| O=C(Cc1ccc([N+](=O)[O-])cc1)Nc1cccc(O)c1 | -4.85 |
| O=C1c2ccccc2NC(O)c2cccn21 (stereo not given) | 0.3 |
| Cc1ccc2nc(NC(=O)C(=O)C(C#N)c3nc4ccccc4s3)sc2c1 (stereo not given) | 11.2 |
| CCCCCCCOC(=O)CO | 22.4 |
